Settings: in acetonitrile, 313.15 K
MEASUREMENT_TYPE: solubility (mole fraction)

Q: Value lookup for solubility (mole fraction); key = "CN1CCN(c2c(F)cc3c(=O)c(C(=O)O)cn4c3c2OCN4C)CC1"
Ans: 0.000345

---

Conditions: in n-butanol, 298.15 K
MEASUREMENT_TYPE: solubility (mole fraction)

Q: Value lookup for solubility (mole fraction); key = "CN1CCN(c2c(F)cc3c(=O)c(C(=O)O)cn4c3c2OCN4C)CC1"
Ans: 0.00014

---

Details: in toluene, 298.15 K
MEASUREMENT_TYPE: solubility (mole fraction)

Q: Value lookup for solubility (mole fraction); key = "CN1CCN(c2c(F)cc3c(=O)c(C(=O)O)cn4c3c2OCN4C)CC1"
Ans: 8.74e-05

---

Conditions: in methanol, 293.15 K
MEASUREMENT_TYPE: solubility (mole fraction)
// response body must contain only the number

Q: Value lookup for solubility (mole fraction); key = "CN1CCN(c2c(F)cc3c(=O)c(C(=O)O)cn4c3c2OCN4C)CC1"
Ans: 0.000173

---

Conditions: in acetone, 313.15 K
MEASUREMENT_TYPE: solubility (mole fraction)
// response body must contain only the number

Q: Value lookup for solubility (mole fraction); key = "CN1CCN(c2c(F)cc3c(=O)c(C(=O)O)cn4c3c2OCN4C)CC1"
Ans: 0.00057

---

Details: in THF, 328.15 K
MEASUREMENT_TYPE: solubility (mole fraction)
// response body must contain only the number

Q: Value lookup for solubility (mole fraction); key = "CN1CCN(c2c(F)cc3c(=O)c(C(=O)O)cn4c3c2OCN4C)CC1"
Ans: 0.00125

---

Conditions: in methanol, 288.15 K
MEASUREMENT_TYPE: solubility (mole fraction)
// response body must contain only the number

Q: Value lookup for solubility (mole fraction); key = "CN1CCN(c2c(F)cc3c(=O)c(C(=O)O)cn4c3c2OCN4C)CC1"
Ans: 0.000147

---

Settings: in ethyl acetate, 283.15 K
MEASUREMENT_TYPE: solubility (mole fraction)
// response body must contain only the number

Q: Value lookup for solubility (mole fraction); key = "CN1CCN(c2c(F)cc3c(=O)c(C(=O)O)cn4c3c2OCN4C)CC1"
Ans: 0.000154

---

Details: in ethyl acetate, 323.15 K
MEASUREMENT_TYPE: solubility (mole fraction)
// response body must contain only the number

Q: Value lookup for solubility (mole fraction); key = "CN1CCN(c2c(F)cc3c(=O)c(C(=O)O)cn4c3c2OCN4C)CC1"
Ans: 0.000432

---

Details: in n-propanol, 308.15 K
MEASUREMENT_TYPE: solubility (mole fraction)
// response body must contain only the number

Q: Value lookup for solubility (mole fraction); key = "CN1CCN(c2c(F)cc3c(=O)c(C(=O)O)cn4c3c2OCN4C)CC1"
Ans: 0.000202

---

Details: in n-propanol, 293.15 K
MEASUREMENT_TYPE: solubility (mole fraction)
// response body must contain only the number

Q: Value lookup for solubility (mole fraction); key = "CN1CCN(c2c(F)cc3c(=O)c(C(=O)O)cn4c3c2OCN4C)CC1"
Ans: 0.000114

---

Conditions: in 1,4-dioxane, 323.15 K
MEASUREMENT_TYPE: solubility (mole fraction)

Q: Value lookup for solubility (mole fraction); key = "CN1CCN(c2c(F)cc3c(=O)c(C(=O)O)cn4c3c2OCN4C)CC1"
Ans: 0.000427

The origin of these recorded values is BigSolDB 2.1.
